Attribution: patent US20100135997A1

The entries below come with measured pKd values attached.
molecular target: T1, HLA-A*0201 loaded with the Carcinoembryonic antigen (CEA)-derived … peptide (biotin on the C-terminal biotinylation tag); experiment: Biacore SPR
T1 construct: Soluble, biotinylated, immobilised on a streptavidin chip
pKd: −log10 of the molar value.

Guide cases for pKd, answers given:
BINDER	pKd
SEQ ID NO 49 (receptor, mutated soluble two domain ILT-2) MHLPKPTLWAEPGSVITLQSPLTLRCQGGQETQQYRLYREKKTAPWITRIPQELVKKGQFPIPSITWEHAGRYRCYYGSDTRQWSASSDPLELVVTGVYIKPTLSAQPSPVVNSGGNVTLQCDSQVAFDGFILCKEGEDDHPQCLNSQPHARGSSRAIFSVGPVSPSRRWRYRCYAYMSWSPYEWSLPSDLLELDVDG	≥ 6.00
SEQ ID NO 28 (receptor, mutated soluble two domain ILT-2) MHLPKPTLWAEPGSVITLQSPVTLRCQGGQETQQYRLYREKKTAPWITRIPQELVKKGQFPIPSITWEHAGRYRCYYGSDTRQWSASSDPLELVVTGVYIKPTLSAQPSPVVNSGGNVTLQCDSQVAFDGFILCKEGEDDHPQCLNSQPHARGSSRAIFSVGPVSPSRRWRYRCYAYMSWAPYEWSLPSDLLELDVDG	≥ 6.00

Looking up SEQ ID NO 38 (receptor, mutated soluble two domain ILT-2) MAGHLPKPTLWAEPGSVITQGSPVTLRCQGGQETQEYRLYREKKTAPWITRIPQELVKKGQFPIPSITWEHAGRYRCYYGSDTSQWSASSDPLELVVTGVYIKPTLSAQPSPVVNSGGNVTLQCDSQVAFDGFILCKEGEDEHPQCLNSQPHARGSSRAIFSVGPVSPSRRWWYRCYAYMSWAPYEWSLPSDLLELDVDG , I found its pKd recorded as ≥ 6.00
